This section presents molecules with their documented melting point values.

>>> data_value("CS(=O)(=O)c1ccc(-c2cnn(-c3ccc(F)cc3)c(=O)c2Cc2ccccc2)cc1")
"180 to 182 °C"
>>> data_value("O=C(CCCN1CCC(c2noc3cc(F)ccc23)CC1)c1cc2c(s1)CCCNC2=O")
"142 to 143 °C"
>>> data_value("Cc1cc(-c2ccc(S(N)(=O)=O)cc2)n(-c2ccc(SSc3ccc(-n4cc(C)cc4-c4ccc(S(N)(=O)=O)cc4)cc3)cc2)c1")
"251 to 255 °C"
>>> data_value("CCCCCC(O)C1C(=O)NC2(C(O)C3C=CCCC3)C(=O)OC12C (stereo not drawn)")
"144 °C"
>>> data_value("Cc1c(O[Si](C(C)C)(C(C)C)C(C)C)cc2occ(N3CCC(O)(c4ccc(F)cc4)CC3)c(=O)c2c1Br")
"193 to 195 °C"
>>> data_value("OC1CSC(Oc2cncc(-c3cc4ccccc4o3)c2)C(O)C1O (stereo not drawn)")
"210 °C"

stdin: Entry `COc1ccc(C2=C(c3ccc(S(N)(=O)=O)cc3)CCC2)cc1F` has what melting point?
stdout: 170 to 171 °C

stdin: Given CC1=C(C(=O)OC(C)C)C(c2cccc([N+](=O)[O-])c2)n2c(n[nH]c2=O)N1 (stereo not drawn) , state its recorded melting point.
stdout: 225 to 227 °C

----------
Listed compounds paired with reported melting point

Some compounds with known melting point results, for comparison:
>>> data_value("C=CCP(=O)(c1ccccc1)c1ccccc1")
"94 to 96 °C"
>>> data_value("CC(C)(COc1ccc(CNC(=O)C2Cc3ccccc3N2S(=O)(=O)c2ccc(-c3ccccc3C(F)(F)F)cc2)cc1)C(=O)O (stereo not drawn)")
"98 to 105 °C"
>>> data_value("CC(C)(C)c1cccc(C[C@@H](NC(=O)c2cccc3c2C=CCCC3)[C@@H](O)c2cccc(Cl)c2)c1 (racemic)")
"104 to 105 °C"

stdin: Recorded melting point of `C=CCCCCCCCCC(=O)N1CCN(c2cc(N3CCCC3)nc(N3CCCC3)n2)CC1` , please.
stdout: 93 to 96 °C

stdin: Which measured melting point value corresponds to `CCc1cc([N+](=O)[O-])c(=O)[nH]c1COCc1ccccc1` ?
stdout: 157 to 158 °C

stdin: Quick check: melting point of `Cc1cc(C)c2c(c1)cc(C(=O)OCc1ccccc1)n2CC(=O)OC(C)(C)C` ?
stdout: 115 °C

stdin: Given the entry CCCCCCC(C(=O)O)N1Cc2cc(-c3ccccc3-c3nn[nH]n3)ccc2N1 (stereo not drawn) , report its measured melting point.
stdout: 113 to 120 °C

stdin: Reported melting point for `O=C(O[C@@H]1CC[C@@H](c2cccc(F)c2F)Cc2ccc(Cl)nc21)N1CCC(n2c(=O)[nH]c3ncccc32)CC1` : what is it?
stdout: 248 °C

----------
attribute-measured: melting point

Please review the following examples before continuing.
>>> data_value("COc1ccccc1-c1ccc(Cl)c2c1S(=O)(=O)NC(C1CCCCC1)=N2")
"100 to 105 °C"
>>> data_value("CCCCCC(=O)OC1(c2nc(OC)cc(OC)n2)OC(=O)c2c(Cl)ccc(Cl)c21 (stereo not given)")
"103 to 105 °C"
>>> data_value("O=C(c1ccccc1)N1CCC(CCl)CC1")
"68 to 70 °C"
>>> data_value("CCCCN1CCCC1=NC(=O)Nc1c(C)cccc1C")
"93 to 95 °C"

Okay, next one:
stdin: Which melting point value belongs to `CCc1oc2ccccc2c1C(=O)c1ccc(OC)cc1` ?
stdout: 81 °C
